# Tested on: Fibroblast
# PROCEDURE_TEXT: Incucyte cell viability with human fibroblast; also: filed as whole numbers so only -1 and 0 and 1 occur
# Format: toxicity, cell-based
# ASSAY_CONDITIONS: 24 h, 10 µM, compound concentration 10 uM, replicate number 2, timepoint 24 hours
Quick reference: Growth Rate of the listed items.
// return a plain number; no unit text

A selection of reference data follows.
COMPOUND	Growth Rate
O=C(O)C[C@H]1CCc2c1[nH]c1ccc(OCc3ccc(C4CCCC4)c(C(F)(F)F)c3)cc21 [ETRASIMOD]	1
CNCCC(Oc1ccc(C(F)(F)F)cc1)c1ccccc1.Cl (stereo not drawn) [FLUOXETINE HYDROCHLORIDE]	0
CCn1cc(-c2cccc(C(F)(F)F)c2)c2sc(C(=N)NC3CCS(=O)(=O)CC3)cc2c1=O	1

Growth Rate measured on CN([C@@H]1CCc2c(CC(=O)O)c3cc(S(C)(=O)=O)ccc3n2C1)S(=O)(=O)c1ccc(F)cc1 [CRTH2-negative-control] = 0

Growth Rate measured on "C[C@@H](c1cccc(CN)c1)n1cc(Cl)cc(C(N)=O)c1=N.Cl" = 0

Growth Rate measured on COc1cccc(OC)c1-c1cc(C(=O)NC2(C(=O)O)C3CC4CC(C3)CC2C4)nn1-c1ccc(C(=O)N(C)CCCN(C)C)cc1C(C)C (stereo not drawn) = 1

Growth Rate measured on "Br.Br.N=C(N)SCCc1c[nH]cn1" = 0

Growth Rate measured on CN(C)c1ncnc(-c2ccc3nc(Nc4cc(CN5CCN(C(=O)CC(F)(F)F)CC5)ccn4)[nH]c3c2)c1Cl [BAY-440] = 0

###

Quick reference: Growth Rate of the listed items.
# System: U2OS
# PROCEDURE_TEXT: Incucyte cell viability with U2OS; also: filed as whole numbers so only -1 and 0 and 1 occur
# Type: toxicity, cell-based
# ASSAY_CONDITIONS: human, 12 h, 10 µM, compound concentration 10 uM, replicate number 1, timepoint 12 hours
// return a plain number; no unit text

Growth Rate measured on "CC(C)C(=O)Nc1n[nH]c2cc(-c3cccc(NS(=O)(=O)C4CC4)c3)ccc12" = 0

Growth Rate measured on "CNCCN1CCC(OCc2ccccc2)CC1" = 1

Growth Rate measured on C[C@@H](NCCCc1cccc(C(F)(F)F)c1)c1cccc2ccccc12.Cl [CINACALCET HYDROCHLORIDE] = 1

Growth Rate measured on O=C(c1ccc(F)cc1)N1CC(COc2ccc(Br)cc2)(C(=O)O)C1 [PF-04475866] = 1

Growth Rate measured on CC(=O)Nc1c(C(C)=O)c(=O)n(C)c2nc(-c3ccc(Cl)cc3Cl)c(-c3ccc(Cl)cc3)cc12 [NAPHTHYRIDINONE] = 0

Growth Rate measured on C[C@@]1(C(=O)Nc2ccc(F)nc2)CCCN1c1nc(Nc2cc(C3CC3)n[nH]2)c2cccn2n1 [BMS-754807] = 0

Growth Rate measured on C=C1/C(=C\C=C2/CCC[C@]3(C)[C@@H]([C@H](C)/C=C/C=C/C(O)(CC)CC)CC[C@@H]23)C[C@@H](O)C[C@@H]1O [SEOCALCITOL] = 1

Growth Rate measured on "C=CC(=O)Nc1ccc2ncnc(Nc3ccc(OCc4cccc(F)c4)c(Cl)c3)c2c1.Cc1ccc(S(=O)(=O)O)cc1" = 1

###

# Tested on: Fibroblast
# PROCEDURE_TEXT: Multiplex assay against human fibroblast
# Assay type: toxicity, cell-based
# ASSAY_CONDITIONS: 12 h, 1 µM, compound concentration 1 uM, replicate 1
MEASURE_NAME: Population Healthy Nuclei (%)
Numbers only here, please. The scale is %.

A selection of reference data follows.
COMPOUND	MEASURE_NAME	RECORDED_MEASUREMENT
Cc1[nH]c(/C=C2\C(=O)Nc3ccc(S(=O)(=O)N(C)c4cccc(Cl)c4)cc32)c(C)c1C(=O)N1CCN(C)CC1	Population Healthy Nuclei (%)	51
CC(C)(O)CNc1ncc(-c2ccnc(Nc3ccnc(Cl)c3)n2)c(CC2CC2)n1	Population Healthy Nuclei (%)	46
CN1CCC[C@@H]1CCO[C@](C)(c1ccccc1)c1ccc(Cl)cc1.O=C(O)/C=C/C(=O)O [CLEMASTINE FUMARATE]	Population Healthy Nuclei (%)	39

Population Healthy Nuclei (%) measured on c1cn2cc(-c3ccc4cn[nH]c4c3)nc(Nc3ccc(N4CCOCC4)cc3)c2n1 [ENTOSPLETINIB] = 36

Population Healthy Nuclei (%) measured on "Cc1csc2c(N[C@@H](C)CN3CCN(S(=O)(=O)c4ccc(Cl)c(Cl)c4)CC3)ncnc12" = 46

Population Healthy Nuclei (%) measured on "C=CC(=O)Nc1ccc2ncnc(Nc3ccc(OCc4cccc(F)c4)c(Cl)c3)c2c1.Cc1ccc(S(=O)(=O)O)cc1" = 37

Population Healthy Nuclei (%) measured on CC(C)NCC(O)COc1ccc(CCOCC2CC2)cc1.Cl (stereo not drawn) [BETAXOLOL HYDROCHLORIDE] = 47

Population Healthy Nuclei (%) measured on "COc1cc(-n2cnc3cc(-c4ccc(Cl)cc4)sc3c2=O)ccc1OCCN1CCCC1" = 49

###

# Test system: HEK-293T
# PROCEDURE_TEXT: Multiplex assay against HEK293T
# Type: toxicity, cell-based
# ASSAY_CONDITIONS: human, 24 h, 1 µM, compound concentration 1 uM, replicate 1
Quick reference: Population Apoptotic (%) of the listed items.
Numbers only here, please. The scale is %.

A selection of reference data follows.
COMPOUND	Population Apoptotic (%)
Cn1cc(-c2[nH]c3cc(NC(=O)[C@H](N)C4CCCCC4)cc4c3c2C=NNC4=O)cn1	41
CN1CCN(CCOc2cc(OC3CCOCC3)c3c(Nc4c(Cl)ccc5c4OCO5)ncnc3c2)CC1	54

Population Apoptotic (%) measured on "Cc1nc(-c2cn3c(n2)-c2ccc(-c4cnn(C(C)(C)C(N)=O)c4)cc2OCC3)n(C(C)C)n1" = 24

Population Apoptotic (%) measured on "CN(C)C(=O)/C(C#N)=C/c1ccc(-c2nc3cnc4[nH]ccc4c3n2C2CCCCC2)o1" = 46

Population Apoptotic (%) measured on "COc1ncc(-c2ccc3nccc(-c4ccnnc4)c3c2)cc1NS(=O)(=O)c1ccc(F)cc1F" = 47

Population Apoptotic (%) measured on "C[C@@]1(C(=O)Nc2ccc(F)nc2)CCCN1c1nc(Nc2cc(C3CC3)n[nH]2)c2cccn2n1" = 25

Population Apoptotic (%) measured on "CNc1nc(NCc2ccc(NS(C)(=O)=O)cc2Cl)cc(-c2ccccn2)n1" = 55

Population Apoptotic (%) measured on "Cc1[nH]c(/C=C2\C(=O)Nc3ccc(S(=O)(=O)N(C)c4cccc(Cl)c4)cc32)c(C)c1C(=O)N1CCN(C)CC1" = 55

Population Apoptotic (%) measured on O=C1NCN(c2ccccc2)C12CCN(CCCOc1ccc(F)cc1)CC2 [SPIRAMIDE] = 50

Population Apoptotic (%) measured on CC(C)NCC(O)COc1ccc(CCOCC2CC2)cc1.Cl (stereo not given) [BETAXOLOL HYDROCHLORIDE] = 45

###

Quick reference: Total Cell Count of the listed items.
# Tested on: U2OS
# PROCEDURE_TEXT: Multiplex assay against U2OS
# Assay type: toxicity, cell-based
# ASSAY_CONDITIONS: human, 24 h, 10 µM, compound concentration 10 uM, replicate 1
// return a plain number; no unit text

MOLECULE	Total Cell Count
Cc1c(-c2ccc(O)cc2)n(Cc2ccc(OCCN3CCCCCC3)cc2)c2ccc(O)cc12	213
Cc1cc(C)cc(-c2cnc3cc(Cl)c(-c4cccc(O)c4)cc3c2OCCCN)c1	200
OC1(c2ccc(Cl)cc2)CCN(Cc2c[nH]c3ccccc23)CC1	197
Cl.N#Cc1ccc2[nH]cc(CCCCN3CCN(c4ccc5oc(C(N)=O)cc5c4)CC3)c2c1 [VILAZODONE HYDROCHLORIDE]	135
Cc1nc(-c2cn3c(n2)-c2ccc(-c4cnn(C(C)(C)C(N)=O)c4)cc2OCC3)n(C(C)C)n1	168

// molecule "CC(C)(O)CNc1ncc(-c2ccnc(Nc3ccnc(Cl)c3)n2)c(CC2CC2)n1" , assay U2OS, Total Cell Count value: 240

// molecule "CN1CCN(c2ccc(OC(F)(F)F)c(Nc3ncc4c(n3)-c3c(c(C(N)=O)nn3CCO)CC4)c2)CC1" , assay U2OS, Total Cell Count value: 151

###

# Test system: Fibroblast
# PROCEDURE_TEXT: Multiplex assay against human fibroblast
# Assay type: toxicity, cell-based
# ASSAY_CONDITIONS: 12 h, 10 µM, compound concentration 10 uM, replicate 1
Answer False if Population Normal (%) is under 80%, and True if it is 80% or more.

Take a look at these entries with their results.
MOLECULE	CATEGORY
C=CC(=O)Nc1ccc2ncnc(Nc3ccc(OCc4cccc(F)c4)c(Cl)c3)c2c1.Cc1ccc(S(=O)(=O)O)cc1	True
C=CC(=O)Nc1cc2c(Nc3ccc(F)c(Cl)c3)ncnc2cc1OCCCN1CCOCC1.Cl.Cl [CANERTINIB DIHYDROCHLORIDE]	True
CN(C)C(=O)/C(C#N)=C/c1ccc(-c2nc3cnc4[nH]ccc4c3n2C2CCCCC2)o1	False
OC1(c2ccc(Cl)cc2)CCN(Cc2c[nH]c3ccccc23)CC1	False
Cc1nc(Nc2n[nH]c3c2CN(C(=O)N[C@H](CN(C)C)c2ccccc2)C3(C)C)c2sccc2n1	True

Prompt: For this molecule, is measured Population Normal (%) 80% or higher? "CC(C)(O)CNc1ncc(-c2ccnc(Nc3ccnc(Cl)c3)n2)c(CC2CC2)n1"
Response: True

Prompt: For this molecule, is measured Population Normal (%) 80% or higher? COc1cccc([C@@H](C)NCCCc2ccccc2Cl)c1.Cl [TECALCET HYDROCHLORIDE]
Response: True

From: ChEMBL document CHEMBL4689842
